Entry source: patent US20240327505A1

Target: SARS-CoV-2 "Delta-plus" B.1.617.2.1 full-length Spike protein on pseudovirus (SARS-CoV-2, UniProt P0DTC2 14-1273)
Test: cell-based or functional assay
endpoint-name: Pseudovirus Neturalization

Ask: Given the binder AB-009271 (antibody, V domains shown) VH: EVQLVESGGGLIQPGGSLRLSCAASGFIVSSNYMSWVRQAPGKGLEWVSVIYSGGSTYYADSVKGRFTISRDNSKNTLYLQMNSLRAEDTAVYYCARDYGDFYFDYWGQGTLVTVSS VL: EIVMTQSPATLSVSPGERATLSCRASQSVSSNLAWYQQKPGQAPRLLIYGASTRATGIPARFSGSGSGTEFTLTISSLQSEDFAVYYCQQYYNWPRTFGQGTKVEIK , write its reported Pseudovirus Neturalization.
Result: > 50 µg/mL

Ask: Name the recorded Pseudovirus Neturalization of the binder listed here: AB-009734 (antibody, V domains shown) VH: QVHLVQSGAEVKTPGASVRVSCKASGYTFTSHYMHWVRQAPGQGLEWMGLINPSGSGTAYPQHFQGRVTMTRDTSTTTDYMDLSSLRSEDTAMYFCARMERSGAFDLWGQGTMVTVSS VL: EIVLTQSPGTLSLSPGERATLSCRASQTISSRYLAWYYQKPGQAPRLLIQGSSIRATGIPDRFSGSGSGTDFTLTISRLEPEDFAVYYCQHYGSSPPMYTFGQGTKLEIK
Result: > 50 µg/mL

Ask: Let me know recorded Pseudovirus Neturalization for AB-009346 (antibody, V domains shown) VH: EVQLVESGGGVVRPGGSLRLSCAASGFTFDDYGMSWVRQAPGKGLEWVSGINWNGGSTGYADSVKGRFTISRDNAKNSLYLQMNSLRAEDTALYYCARWPLLGISGYYHYYMDVWGKGTTVTVSS VL: QSALTQPRSVSGSPGQSVTISCTGTSSDVGGYNYVSWYQQHPGKAPKLMIYDVSKRPSGVPDRFSGSKSGNTASLTISGLQAEDEADYYCCSYAGSYTLLFGGGTKLIVL , thanks.
Result: > 50 µg/mL
